Data provenance is ChEMBL document CHEMBL1125191.

# System: Mus musculus
# method.summary: Effective dose after subcutaneous administration using rotarod test in mice
# Assay type: functional
value.kind: ED50 (mg/kg)

[[record]]
molecule = "CC1CCC(c2ccccc2)(N2CCCCC2)CC1 (stereo in doubt; 17)"
system_name = "Mus musculus"
modifier_sign = ">"
recorded_number = 150

[[record]]
molecule = "CC1CCCCC1(c1ccccc1)N1CCCCC1 (stereo in doubt; (+)-2)"
system_name = "Mus musculus"
modifier_sign = "="
recorded_number = 7.5

[[record]]
molecule = "CC1CCCCC1(c1ccccc1)N1CCCCC1 (trans isomer)"
system_name = "Mus musculus"
modifier_sign = "="
recorded_number = 3.3

[[record]]
molecule = "CC1CCCCC1(c1ccccc1)N1CCCCC1 (stereo in doubt; (-)-2)"
system_name = "Mus musculus"
modifier_sign = "="
recorded_number = 1.9

[[record]]
molecule = "CC1CCC(c2ccccc2)(N2CCCCC2)CC1 (stereo in doubt; 18)"
system_name = "Mus musculus"
modifier_sign = "="
recorded_number = 5.5

[[record]]
molecule = "CC1CCCCC1(c1ccccc1)N1CCCCC1 (stereo in doubt; 3)"
system_name = "Mus musculus"
modifier_sign = ">"
recorded_number = 150

[[record]]
molecule = "CC1CCCCC1(c1ccccc1)N1CCCCC1 (stereo in doubt; (+)-3)"
system_name = "Mus musculus"
modifier_sign = ">"
recorded_number = 100


---

Consider the following molecules and their measured pKi readings.
# system.name: Glutamate receptor ionotropic, NMDA 1 (Rattus norvegicus)
# method.summary: Binding affinity by displacement of [3H]TCP from PCP N-methyl-D-aspartate glutamate receptor of tissue homogenate preparation of rat brain without cerebellum (in vitro)
# Type: tissue-based
pKi: −log10 of the molar value.
value.kind: pKi

[[record]]
molecule = "CC1CCC(c2ccccc2)(N2CCCCC2)CC1 (stereo in doubt; 18)"
recorded_number = 6.78

[[record]]
molecule = "c1ccc(C2(N3CCCCC3)CCCCC2)cc1 [PHENCYCLIDINE]"
recorded_number = 7.28

[[record]]
molecule = "CC1CCCCC1(c1ccccc1)N1CCCCC1 (stereo in doubt; (-)-2)"
recorded_number = 7.96

[[record]]
molecule = "CC1CCCCC1(c1ccccc1)N1CCCCC1 (trans isomer)"
recorded_number = 7.60

[[record]]
molecule = "CC1CCCCC1(c1ccccc1)N1CCCCC1 (stereo in doubt; (-)-3)"
recorded_number = 5.66

[[record]]
molecule = "CC1CCCCC1(c1ccccc1)N1CCCCC1 (stereo in doubt; 3)"
recorded_number = 5.13

[[record]]
molecule = "CC1CCCCC1(c1ccccc1)N1CCCCC1 (stereo in doubt; (+)-3)"
recorded_number = 5.53

[[record]]
molecule = "CC1CCC(c2ccccc2)(N2CCCCC2)CC1 (stereo in doubt; 17)"
recorded_number = 6.21

[[record]]
molecule = "CC1CCCCC1(c1ccccc1)N1CCCCC1 (stereo in doubt; (+)-2)"
recorded_number = 7.00

